# TARGET DESC: human plasma kallikrein (Homo sapiens, UniProt P03952)
# Sequence (P03952 391-638 limits assumed): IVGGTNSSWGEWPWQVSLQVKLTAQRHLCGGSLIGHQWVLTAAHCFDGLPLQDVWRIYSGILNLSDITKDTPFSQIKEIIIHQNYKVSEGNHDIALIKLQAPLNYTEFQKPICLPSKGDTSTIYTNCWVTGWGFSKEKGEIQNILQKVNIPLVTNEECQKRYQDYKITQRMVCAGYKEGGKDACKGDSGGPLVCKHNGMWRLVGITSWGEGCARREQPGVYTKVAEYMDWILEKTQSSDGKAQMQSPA
# Sequence (P03952 20-390 partner limits assumed): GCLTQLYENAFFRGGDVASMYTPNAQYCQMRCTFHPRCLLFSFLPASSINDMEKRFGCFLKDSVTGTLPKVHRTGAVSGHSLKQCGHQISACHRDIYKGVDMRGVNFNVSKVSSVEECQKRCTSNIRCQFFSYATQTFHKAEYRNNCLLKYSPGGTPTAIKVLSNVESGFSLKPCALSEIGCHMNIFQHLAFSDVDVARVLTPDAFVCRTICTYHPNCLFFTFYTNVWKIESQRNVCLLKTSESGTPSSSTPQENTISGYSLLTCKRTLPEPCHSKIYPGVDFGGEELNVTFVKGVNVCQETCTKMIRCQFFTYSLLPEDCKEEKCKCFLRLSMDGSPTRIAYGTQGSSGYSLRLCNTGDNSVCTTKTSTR
# ASSAY INFO: Kallikrein inhibition FLINT assay with quenched AMC peptide substrate Z-Gly-Pro-Arg-AMC (end point EP or kinetic KIN reads)
# Type: biochemical
# STATED CONDITIONS: kinetic reads at 5 min intervals over 30 min; read-out: Kallikrein (KIN) IC50
pIC50: −log10 of the molar value.
Criterion: pIC50 meeting or surpassing 7. Met: true (1). Not met: false (0).

> print(dat)
                                   compound  discrete.label
1  [O-][n+]1cc(-c2c(-n3cnnn3)ccc(Cl)c2F)ccc1[C@@H](CC1CC1)n1cc(-c2cn(C(F)F)nn2)cn1       false (0)
2  COc1cc([C@@H](CC2CC2)n2cc(-c3ccc(C(=O)O)cc3)cn2)[n+]([O-])cc1-c1cc(Cl)ccc1C#N        true (1)
3  [O-][n+]1cc(-c2c(-n3cnnn3)ccc(Cl)c2F)ccc1C(Cc1nn(CC(F)(F)F)cc1F)n1cc(-c2ccnc(C(F)(F)F)c2)cn1 (stereo not drawn)        true (1)
4  [O-][n+]1cc(-c2c(-n3cc(C4CC4)nn3)ccc(Cl)c2F)ccc1C(Cn1cc(F)cn1)n1cc(-c2ccnc(C(F)(F)F)c2)cn1 (stereo not drawn)       false (0)
5  O=C(O)c1ccc(-c2cnn(C(CC3CC3c3ccc(-c4ccccc4)cc3)c3ccc(-c4cc(Cl)ccc4-n4cnnn4)c[n+]3[O-])c2)cc1 (stereo not drawn)        true (1)
6  CC(C)C(=O)N(C)CC(c1ccc(-c2c(-n3cnnn3)ccc(Cl)c2F)c[n+]1[O-])n1cc(-c2ccnc(C(F)(F)F)c2)cn1 (single isomer, unassigned)        true (1)
